Cited source: ChEMBL document CHEMBL1154550

- test target: Adenosine receptor A1 (Rattus norvegicus, UniProt P25099)
- Sequence (P25099 whole entry): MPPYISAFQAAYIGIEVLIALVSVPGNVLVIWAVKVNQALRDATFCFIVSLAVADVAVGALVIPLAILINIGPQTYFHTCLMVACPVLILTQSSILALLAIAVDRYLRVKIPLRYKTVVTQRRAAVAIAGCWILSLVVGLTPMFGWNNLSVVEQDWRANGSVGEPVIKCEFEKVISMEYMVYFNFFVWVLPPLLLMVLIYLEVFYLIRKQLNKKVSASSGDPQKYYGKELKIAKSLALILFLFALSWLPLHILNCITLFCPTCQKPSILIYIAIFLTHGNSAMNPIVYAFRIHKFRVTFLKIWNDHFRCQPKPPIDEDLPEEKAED
parameter measured: IC50 (µM)
Response body: numeric value in µM, unit text excluded.

Lookup: Kindly indicate its recorded IC50. Item: O=C(NCCSSCCNC(=O)/C(Cc1ccc(OS(=O)(=O)O)c(Br)c1)=N/O)/C(Cc1ccc(O)c(Br)c1)=N/O
Found: 90
